Tested On: Trypanothione reductase (TR) (Leishmania donovani, UniProt P39050)
Construct: native enzyme in cell extracts of L. donovani axenic amastigotes
Sequence (P39050 whole entry): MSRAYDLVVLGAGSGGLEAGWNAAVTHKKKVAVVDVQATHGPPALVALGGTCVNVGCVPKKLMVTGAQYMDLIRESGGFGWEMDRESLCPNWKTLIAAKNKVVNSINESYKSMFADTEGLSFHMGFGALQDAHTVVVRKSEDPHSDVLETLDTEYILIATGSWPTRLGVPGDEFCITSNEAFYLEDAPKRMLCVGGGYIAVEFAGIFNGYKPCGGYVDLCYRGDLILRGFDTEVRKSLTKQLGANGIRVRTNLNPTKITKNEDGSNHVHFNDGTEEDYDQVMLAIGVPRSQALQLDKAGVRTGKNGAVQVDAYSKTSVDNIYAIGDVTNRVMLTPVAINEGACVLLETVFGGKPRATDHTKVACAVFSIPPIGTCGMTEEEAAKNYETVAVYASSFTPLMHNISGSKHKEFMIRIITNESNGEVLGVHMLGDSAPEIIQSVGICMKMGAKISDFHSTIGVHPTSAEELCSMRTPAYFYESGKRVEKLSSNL
Measurement Notes: DTNB-coupled colorimetric TR activity assay ([…] nm) in L. donovani cell extract; Lineweaver-Burk analysis
Metric Name: pKi
Please note pKi is a logarithmic value: minus log10 of concentration in mol/L. Answer with that number alone.

Query string: Give its pKi value. Item: CSCC1CN(/N=C/c2ccc([N+](=O)[O-])o2)C(=O)O1 (stereo not shown)
Result string: 5.50
